Each recorded value in this set is attributed to patent US10544147B2.

# TESTED_ON: PI3Kalpha (Homo sapiens (Human), UniProt P42336)
# Sequence (P42336 whole entry, canonical isoform): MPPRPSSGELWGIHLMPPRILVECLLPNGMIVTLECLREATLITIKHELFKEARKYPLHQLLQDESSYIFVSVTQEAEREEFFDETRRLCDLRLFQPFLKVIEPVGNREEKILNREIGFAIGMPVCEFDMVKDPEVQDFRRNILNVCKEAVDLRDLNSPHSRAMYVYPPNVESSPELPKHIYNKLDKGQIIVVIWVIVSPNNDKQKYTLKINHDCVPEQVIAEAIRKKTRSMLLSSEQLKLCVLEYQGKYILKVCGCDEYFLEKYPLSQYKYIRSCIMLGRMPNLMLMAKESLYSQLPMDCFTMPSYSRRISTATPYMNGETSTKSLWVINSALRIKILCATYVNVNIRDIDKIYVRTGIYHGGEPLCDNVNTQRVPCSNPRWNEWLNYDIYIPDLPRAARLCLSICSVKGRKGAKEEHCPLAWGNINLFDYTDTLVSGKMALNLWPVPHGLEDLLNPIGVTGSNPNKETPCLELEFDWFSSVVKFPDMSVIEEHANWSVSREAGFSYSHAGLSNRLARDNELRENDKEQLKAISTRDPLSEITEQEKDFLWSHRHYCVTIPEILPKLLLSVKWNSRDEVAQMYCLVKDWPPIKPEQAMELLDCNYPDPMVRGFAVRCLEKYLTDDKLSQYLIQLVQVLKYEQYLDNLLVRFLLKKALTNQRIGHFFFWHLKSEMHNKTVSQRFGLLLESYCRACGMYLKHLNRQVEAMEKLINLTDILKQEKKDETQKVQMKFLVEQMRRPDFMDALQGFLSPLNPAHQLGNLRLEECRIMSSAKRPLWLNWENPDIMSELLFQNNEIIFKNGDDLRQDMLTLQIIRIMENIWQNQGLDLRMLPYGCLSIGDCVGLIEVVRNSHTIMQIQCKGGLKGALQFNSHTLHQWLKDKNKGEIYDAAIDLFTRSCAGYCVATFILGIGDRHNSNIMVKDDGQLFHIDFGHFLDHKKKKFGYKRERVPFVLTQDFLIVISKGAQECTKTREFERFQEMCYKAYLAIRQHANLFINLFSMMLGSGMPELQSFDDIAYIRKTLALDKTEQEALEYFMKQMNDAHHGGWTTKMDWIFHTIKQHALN
# Sequence (P27986 whole entry partner, canonical isoform): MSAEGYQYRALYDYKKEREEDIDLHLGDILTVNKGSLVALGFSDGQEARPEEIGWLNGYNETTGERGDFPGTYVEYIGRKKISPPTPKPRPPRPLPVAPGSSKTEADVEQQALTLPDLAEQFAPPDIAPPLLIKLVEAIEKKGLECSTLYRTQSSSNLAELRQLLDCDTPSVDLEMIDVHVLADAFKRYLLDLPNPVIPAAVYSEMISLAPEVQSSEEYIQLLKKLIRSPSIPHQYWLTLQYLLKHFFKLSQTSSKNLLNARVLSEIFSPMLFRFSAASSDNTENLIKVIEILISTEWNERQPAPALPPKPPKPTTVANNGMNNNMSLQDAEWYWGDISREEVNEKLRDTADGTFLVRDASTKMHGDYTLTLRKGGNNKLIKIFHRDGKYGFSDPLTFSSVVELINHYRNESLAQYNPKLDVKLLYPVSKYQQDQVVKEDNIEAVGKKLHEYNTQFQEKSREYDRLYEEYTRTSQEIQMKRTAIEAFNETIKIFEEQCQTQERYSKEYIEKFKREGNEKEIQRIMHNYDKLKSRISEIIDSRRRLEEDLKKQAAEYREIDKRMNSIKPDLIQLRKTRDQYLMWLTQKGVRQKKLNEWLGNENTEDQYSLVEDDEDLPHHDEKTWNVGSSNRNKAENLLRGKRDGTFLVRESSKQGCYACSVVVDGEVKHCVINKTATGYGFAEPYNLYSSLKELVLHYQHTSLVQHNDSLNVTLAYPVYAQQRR
# ASSAY_PROTOCOL: HTRF PI3K biochemical assay, alpha isoform (selectivity versus delta)
# CONDITION_NOTES: ratio PI3K-alpha IC50 value/PI3K-delta IC50 value
# Procedure: HTRF PI3K Biochemical Assay to Measure Intrinsic Potency of Compound Inhibitors This loss of signal is nonlinear with respect to both increasing product and time. This non-linear detection will impact accuracy of IC50 calculations; therefore, there is a need for a correction factor to obtain more accurate IC50 values. […] All data were calculated using the ratio of acceptor (APC) to donor (Europium) fluorescence in each well of the assay plate. […]
Reported Relative Selectivity versus PI3Kalpha values for the following compounds.

Cc1ncc(-c2nc3c(-c4ccc5c(c4)C(C)(NCC(C)(C)F)C(=O)N5)ncnc3n2C)cn1 (single isomer, unassigned) [Compound 2-67] : >10

Bench note, PI3Kalpha (Homo sapiens (Human), UniProt P42336): entry CCn1c(-c2cnc(C)nc2)nc2c(-c3ccc4c(c3)C(C)(NCC3(F)COC3)C(=O)N4)ncnc21 (single isomer, unassigned) [Compound 2-72] , its Relative Selectivity versus PI3Kalpha = >10

I looked up CCn1c(-c2cnc(C)nc2)nc2c(-c3ccc4c(c3)CNC4=O)ncnc21 and its Relative Selectivity versus PI3Kalpha for PI3Kalpha (Homo sapiens (Human), UniProt P42336) was 7

Result for CCn1c(-c2cnc(C)nc2)nc2c(-c3ccc4oc(=O)n(Cc5ccccc5)c4c3)ncnc21 , tested on PI3Kalpha (Homo sapiens (Human), UniProt P42336), Relative Selectivity versus PI3Kalpha: >10

The reported PI3Kalpha (Homo sapiens (Human), UniProt P42336) Relative Selectivity versus PI3Kalpha of CCn1c(-c2cnc(C)nc2)nc2c(-c3ccc4c(c3)C(C)(N[C@H](C)C3CCC3)C(=O)N4)ncnc21 (mixture of isomers) is >10
